Where do these numbers come from? They come from the supplement of paper PMC10567573.

# key: entry, value: protein stability index
B1: KCNA3 (parent)
chain: YQSGGRIRRPVNVPIDIFSEEIRF

Variants of: B1
Assay: protein stability index of a GFP-peptide fusion (GPS, HEK-293T) (PSI 1-6); higher = more stable;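 further: lentivirally expressed fusions sorted by FACS into six bins by GFP to DsRed ratio, PSI derived from sequencing read proportions per bin multiplied by bin number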
Conditions: c terminus: a fixed tail appended
READOUT LABEL: protein stability index

1. I22G    1.68
2. I15K    2.19
3. G5S    2.37
